System Under Test: isolated recombinant JAK1 kinase domain (Homo sapiens (Human))
Sequence (P23458 875-1153): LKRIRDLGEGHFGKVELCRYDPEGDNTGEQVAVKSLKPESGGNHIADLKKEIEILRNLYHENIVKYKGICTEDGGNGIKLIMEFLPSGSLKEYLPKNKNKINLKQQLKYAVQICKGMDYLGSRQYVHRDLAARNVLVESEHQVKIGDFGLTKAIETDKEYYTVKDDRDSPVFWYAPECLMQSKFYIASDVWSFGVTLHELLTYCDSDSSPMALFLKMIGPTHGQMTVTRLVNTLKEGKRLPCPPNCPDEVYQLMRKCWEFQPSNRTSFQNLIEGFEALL
Assay: JAK1 enzyme assay (Caliper LabChip, Ki)
Assay type: biochemical
Test Parameters: isolated recombinant JAK1 kinase domain, 1.5 nM enzyme, ATP 25 μM
Provide the recorded pKi for the entries that follow.
Answers are plain numbers, as −log10 of the molar value.

Before answering, review these 3 worked examples.
Compound: CN1CCN(C(=O)Cn2cc(Nc3nc4c(N5CC6CCC(C5)C6C(=O)N5CC(C(F)(F)F)C5)cccn4n3)cn2)CC1 (stereo not drawn)
Recorded Measurement: 8.96
--
Compound: CN1CCN(C(=O)Cn2cc(Nc3nc4c(N5CC6CCC(C5)N6S(=O)(=O)Cc5ccccc5C(F)(F)F)cccn4n3)cn2)CC1
Recorded Measurement: 9.22
--
Compound: CN1CCN(C(=O)Cn2cc(Nc3nc4c(N5CC6CCC(C5)N6CC5(CS(C)(=O)=O)CC5)cccn4n3)cn2)CC1
Recorded Measurement: 8.32

Each compound below has a recorded value; state its pKi.
1. CN(CC1(C#N)CC1)C1CCN(C(=O)Cn2cc(Nc3nc4c(N5CC6CCC(C5)N6C(=O)C5CC(C(F)(F)F)C5)cccn4n3)cn2)CC1 (stereo not drawn) [Example 193]
2. CN1CCN(C(=O)Cn2cc(Nc3nc4c(N5C[C@H]6CC[C@@H](C5)[C@H]6NCCC(F)(F)F)cccn4n3)cn2)CC1
3. CN(C)C(=O)CN1CCN(CC2CCN(C(=O)Cn3cc(Nc4nc5c(N6CC7CCC(C6)N7C(=O)CCC(F)(F)F)cccn5n4)cn3)CC2)CC1

Marked response:
1: 9.22; 2: 8.89; 3: 8.85

---

System Under Test: isolated recombinant JAK1 kinase domain (Homo sapiens (Human))
Assay: JAK1 enzyme assay (Caliper LabChip, Ki)
Assay type: biochemical
Test Parameters: isolated recombinant JAK1 kinase domain, 1.5 nM enzyme, ATP 25 μM
Measured Property: pKi
Give bare numbers, as −log10 of the molar value.

Compound: CN1CCN(C(=O)Cn2cc(Nc3nc4c(N5CC6CCC(C5)N6C(=O)N5CC(C(F)(F)F)C5)cccn4n3)cn2)CC1
Recorded Measurement: 9.30

Compound: CN1CCN(C(=O)Cn2cc(Nc3nc4c(N5CC6CCC(C5)N6S(=O)(=O)c5ccccc5)cccn4n3)cn2)CC1
Recorded Measurement: 9.22

Compound: CN1CCN(C(=O)Cn2cc(Nc3nc4c(N5C[C@H]6CC[C@@H](C5)[C@@H]6OCc5ccncc5)cccn4n3)cn2)CC1
Recorded Measurement: 9.30

Compound: CSC1CCN(C(=O)N2C3CCC2CN(c2cccn4nc(Nc5cnn(CC(=O)N6CCN(C)CC6)c5)nc24)C3)CC1
Recorded Measurement: 8.89

Compound: CN1CCN(C(=O)Cn2cc(Nc3nc4c(N5C[C@H]6CC[C@@H](C5)[C@H]6OCc5ccc(C#N)cc5)cccn4n3)cn2)CC1
Recorded Measurement: 9.40

Compound: CN1CCN(C(=O)Cn2cc(Nc3nc4c(N5CC6CCC(C5)N6C(=O)CC5CC(F)(F)C5)cccn4n3)cn2)CC1
Recorded Measurement: 9.22

Compound: CN1CCN(C(=O)Cn2cc(Nc3nc4c(N5CC6CCC(C5)N6C(=O)CC(C)(C)C(F)(F)F)cccn4n3)cn2)CC1
Recorded Measurement: 8.77

Compound: CN1CCN(C(=O)Cn2cc(Nc3nc4c(N5CC6CCC(C5)N6C(=O)C5CSC5)cccn4n3)cn2)CC1
Recorded Measurement: 9.30

Each compound below has a recorded value; state its pKi.
1. CC(CC(F)(F)F)C(=O)N1C2CCC1CN(c1cccn3nc(Nc4cnn(CC(=O)N5CCN(C)CC5)c4)nc13)C2 (stereo not drawn)
2. CSC1CN(C(=O)N2C3CCC2CN(c2cccn4nc(Nc5cnn(CC(=O)N6CCN(C)CC6)c5)nc24)C3)C1

Marked response:
1: 8.74; 2: 8.89

Each compound below has a recorded value; state its pKi.
1. CN1CCN(C(=O)Cn2cc(Nc3nc4c(N5CC6CCC(C5)N6S(=O)(=O)c5ccc(Cl)cc5)cccn4n3)cn2)CC1
2. CN1CCN(C(=O)Cn2cc(Nc3nc4c(N5CC6CCC(C5)N6C(=O)C5CC5C(F)(F)F)cccn4n3)cn2)CC1 (stereo not drawn)
3. CN1CCN(C(=O)Cn2cc(Nc3nc4c(N5CC6CCC(C5)N6S(=O)(=O)c5cccc(Cl)c5)cccn4n3)cn2)CC1
4. CN1CCN(C(=O)Cn2cc(Nc3nc4c(N5CC6CCC(C5)N6C(=O)C5CC6C(C5)C6(F)F)cccn4n3)cn2)CC1 (stereo not drawn)
5. CN1CCN(C(=O)Cn2cc(Nc3nc4c(N5CC6CCC(C5)N6S(=O)(=O)c5cccnc5)cccn4n3)cn2)CC1
6. COC(=O)N1CCN(CC2CCN(C(=O)Cn3cc(Nc4nc5c(N6CC7CCC(C6)N7C(=O)CCC(F)(F)F)cccn5n4)cn3)CC2)CC1
7. CN1CCN(C(=O)Cn2cc(Nc3nc4c(N5CC6CCC(C5)N6C(=O)N5CCC(C#N)CC5)cccn4n3)cn2)CC1
8. CN1CCN(C(=O)Cn2cc(Nc3nc4c(N5CC6CCC(C5)N6Cc5ccccc5F)cccn4n3)cn2)CC1

Marked response:
1. 9.52
2. 9.00
3. 9.52
4. 8.32
5. 9.22
6. 9.10
7. 9.22
8. 9.00

---

System Under Test: isolated recombinant JAK1 kinase domain (Homo sapiens (Human))
Assay: JAK1 enzyme assay (Caliper LabChip, Ki)
Type: biochemical
Test Parameters: isolated recombinant JAK1 kinase domain, 1.5 nM enzyme, ATP 25 μM
Provide the recorded Ki for the entries that follow.
One number for each entry, in pM.

Before answering, review these 8 worked examples.
Compound: CC(C(=O)N1CCN(C)CC1)n1cc(Nc2nc3c(N4CC5CCCC(C4)N5C(=O)CCC(F)(F)F)cccn3n2)cn1 (stereo not shown) [Example 105]
Measured Property: Ki
Unit Symbol: pM
Recorded Measurement: 1000

Compound: CN(CC1(C#N)CC1)C1CCN(C(=O)Cn2cc(Nc3nc4c(N5CC6CCC(C5)N6C(=O)C5CC(C(F)(F)F)C5)cccn4n3)cn2)CC1 (stereo not shown) [Example 192]
Measured Property: Ki
Unit Symbol: pM
Recorded Measurement: 900

Compound: O=C(Cn1cc(Nc2nc3c(N4CC5CCC(C4)N5C(=O)CCC(F)(F)F)cccn3n2)cn1)N1CCC(N2CCOCC2)CC1
Measured Property: Ki
Unit Symbol: pM
Recorded Measurement: 1000

Compound: O=C(Cn1cc(Nc2nc3c(N4CC5CCC(C4)N5C(=O)CCC(F)(F)F)cccn3n2)cn1)N1CCN(C2CCOCC2)CC1
Measured Property: Ki
Unit Symbol: pM
Recorded Measurement: 700

Compound: CN1CCN(C(=O)Cn2cc(Nc3nc4c(N5CC6CCC(C5)N6C(=O)CC5CC(F)(F)C5(F)F)cccn4n3)cn2)CC1 (stereo not shown)
Measured Property: Ki
Unit Symbol: pM
Recorded Measurement: 800

Compound: CN1CCN(C(=O)Cn2cc(Nc3nc4c(N5CC6CCC(C5)N6C(=O)[C@H]5C[C@H](C(F)(F)F)C5)cccn4n3)cn2)CC1
Measured Property: Ki
Unit Symbol: pM
Recorded Measurement: 700

Compound: O=C(Cn1cc(Nc2nc3c(N4CC5CCC(C4)N5C(=O)N4CC(C(F)(F)F)C4)cccn3n2)cn1)N1CCN(C2CCOCC2)CC1
Measured Property: Ki
Unit Symbol: pM
Recorded Measurement: 700

Compound: CN1CCN(C(=O)Cn2cc(Nc3nc4c(N5C[C@H]6CC[C@@H](C5)[C@H]6N(C)C(=O)CC(F)(F)F)cccn4n3)cn2)CC1
Measured Property: Ki
Unit Symbol: pM
Recorded Measurement: 700

Each compound below has a recorded value; state its Ki.
1. CC(C(=O)N1CCN(C)CC1)n1cc(Nc2nc3c(N4CC5CCC(C4)N5C(=O)C4CC(C(F)(F)F)C4)cccn3n2)cn1 (stereo not shown) [Example 123]
2. O=C(Cn1cc(Nc2nc3c(N4CC5CCC(C4)N5C(=O)CCC(F)(F)F)cccn3n2)cn1)N1CCC(N2CCn3nccc3C2)CC1
3. CSC1CCN(C(=O)N2C3CCC2CN(c2cccn4nc(Nc5cnn(CC(=O)N6CCN(C)CC6)c5)nc24)C3)C1 (stereo not shown)
4. CN1CCN(C(=O)Cn2cc(Nc3nc4c(N5CC6CCC(C5)N6CCCC(F)(F)F)cccn4n3)cn2)CC1
5. CN1CCN(C(=O)Cn2cc(Nc3nc4c(N5C[C@H]6CC[C@@H](C5)[C@H]6OCc5ccccc5)cccn4n3)cn2)CC1

Marked response:
[500, 1600, 600, 8800, 200]

---

Provide the recorded Ki for the entries that follow.
System Under Test: isolated recombinant JAK2 kinase domain (Homo sapiens (Human))
Sequence (O60674 849-1124): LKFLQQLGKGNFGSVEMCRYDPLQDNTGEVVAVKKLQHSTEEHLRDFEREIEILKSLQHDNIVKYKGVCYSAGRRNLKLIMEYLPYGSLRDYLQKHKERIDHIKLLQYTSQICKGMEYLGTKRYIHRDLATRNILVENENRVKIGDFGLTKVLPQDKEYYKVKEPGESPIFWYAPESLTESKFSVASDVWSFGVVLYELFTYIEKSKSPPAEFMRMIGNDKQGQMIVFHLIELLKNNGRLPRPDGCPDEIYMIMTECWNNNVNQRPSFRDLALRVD
Assay: JAK2 enzyme assay (Caliper LabChip, Ki)
Format: biochemical
Test Parameters: isolated recombinant JAK2 kinase domain, 0.2 nM enzyme, ATP 25 μM
Give bare numbers, in nM.

Before answering, review these 6 worked examples.
Molecule: CN1CCN(C(=O)Cn2cc(Nc3nc4c(N5CC6CCC(C5)N6C(=O)C5CC(F)(F)C5)cccn4n3)cn2)CC1
System Under Test: isolated recombinant JAK2 kinase domain (Homo sapiens (Human))
Ki / nM: 1.7

Molecule: CN1CCN(C(=O)Cn2cc(Nc3nc4c(N5C[C@H]6CC[C@@H](C5)[C@H]6OCc5ccc(F)nc5)cccn4n3)cn2)CC1
System Under Test: isolated recombinant JAK2 kinase domain (Homo sapiens (Human))
Ki / nM: 0.6

Molecule: CN1CCN(C(=O)Cn2cc(Nc3nc4c(N5CC6CCC(C5)N6S(=O)(=O)Cc5ccccc5C(F)(F)F)cccn4n3)cn2)CC1
System Under Test: isolated recombinant JAK2 kinase domain (Homo sapiens (Human))
Ki / nM: 1

Molecule: CN1CCN(C(=O)Cn2cc(Nc3nc4c(N5CC6CCC(C5)N6C(=O)c5cccs5)cccn4n3)cn2)CC1
System Under Test: isolated recombinant JAK2 kinase domain (Homo sapiens (Human))
Ki / nM: 1.3

Molecule: CN1CCN(C(=O)Cn2cc(Nc3nc4c(N5CC6CCC(C5)N6S(=O)(=O)c5cccs5)cccn4n3)cn2)CC1
System Under Test: isolated recombinant JAK2 kinase domain (Homo sapiens (Human))
Ki / nM: 0.7

Molecule: CN1CCN(C(=O)Cn2cc(Nc3nc4c(N5CC6CCC(C5)N6S(=O)(=O)c5ccccc5F)cccn4n3)cn2)CC1
System Under Test: isolated recombinant JAK2 kinase domain (Homo sapiens (Human))
Ki / nM: 1.5

Proceeding to the next molecule to report its Ki.
Exam item: Which measured Ki value corresponds to CSCCN1CCN(C(=O)Cn2cc(Nc3nc4c(N5CC6CCC(C5)N6C(=O)C5CC(C(F)(F)F)C5)cccn4n3)cn2)CC1 (stereo not shown) [Example 197] ?
Marked response: 0.3
